Experiment: Clearance in CD1 mouse at 5.4 mg/kg, iv
Format: ADME, organism-based
Parameters: dose 5.4 mg/kg, route intravenous
Settings: in vivo
QUANTITY: clearance (mL/min/kg)
Please respond with the number in mL/min/kg and leave the unit unwritten.

Noted for C[C@H]1Cc2c([nH]c3cc(Cl)c(F)cc23)[C@@]2(N1)C(=O)Nc1ccc(Cl)cc12 : its clearance reads 9.75

====

Test system: Plasmodium berghei
Assay: Antimalarial activity against Plasmodium berghei GFP ANKA infected in NMRI mice (Mus musculus) assessed as reduction in parasitaemia dosed in ETPGS formulation 1 day post infection measured 72 hrs post infection
Format: functional
// reported ED50 per item
Answer with a number only, understood to be in mg/kg.

Completed entries (count: 3):
>>> numeric_value("CCN(CC)CCCC(C)Nc1ccnc2cc(Cl)ccc12 (centres undefined) [CHLOROQUINE]")
1.9
>>> numeric_value("OC(c1cc(C(F)(F)F)nc2c(C(F)(F)F)cccc12)C1CCCCN1 (centres undefined) [MEFLOQUINE]")
4.2
>>> numeric_value("C[C@H]1Cc2c([nH]c3cc(Cl)c(F)cc23)[C@@]2(N1)C(=O)Nc1ccc(Cl)cc12 [CIPARGAMIN]")
1.2

// below: ED50 requested for another compound
The reported value for C[C@H]1[C@H](OC(=O)CCC(=O)O)O[C@@H]2O[C@@]3(C)CC[C@H]4[C@H](C)CC[C@@H]1[C@@]24OO3 [ARTESUNATE] in terms of ED50 is 6.2
